species on record: Rattus norvegicus; assay: Open TG-GATES - Regimen: Daily Repeat; format: toxicity, organism-based, Sprague-Dawley; parameters: regimen Daily Repeat, gender Male, age 6 weeks; details: in vivo, po, 0 mg/kg, […], tissue Plasma, route gavage, dose level Control, time 14 day
PROPERTY_MEASURED: GLC

O=C(O)Cc1ccccc1Nc1c(Cl)cccc1Cl | 220.2 mg/dL
CC(=O)Nc1nnc(S(N)(=O)=O)s1 [ACETAZOLAMIDE] | 197.6 mg/dL
CCOC(=O)[C@H](CCc1ccccc1)N[C@@H](C)C(=O)N1CCC[C@H]1C(=O)O | 209.6 mg/dL
CN(C)[C@@H]1C(O)=C(C(N)=O)C(=O)[C@@]2(O)C(O)=C3C(=O)c4c(O)cccc4[C@@](C)(O)[C@H]3C[C@@H]12 | 175.2 mg/dL

Given the entry "CN1C(C(=O)Nc2ccccn2)=C(O)c2sc(Cl)cc2S1(=O)=O" , report its measured GLC.
195 mg/dL

Next record, please: "Cc1cccc(Nc2ccccc2C(=O)O)c1C"
233.6 mg/dL

Next record, please: C1CCC(C(CC2CCCCN2)C2CCCCC2)CC1 (stereo not given)
192 mg/dL

Next record, please: "C#C[C@]1(O)CC[C@H]2[C@@H]3CCC4=Cc5oncc5C[C@]4(C)[C@H]3CC[C@@]21C"
188.2 mg/dL

Next record, please: CC(CN1c2ccccc2Sc2ccccc21)N(C)C (stereo not given)
201 mg/dL

Next record, please: "Clc1c(Cl)c(Cl)c(Cl)c(Cl)c1Cl"
189 mg/dL

====

organism: Rattus norvegicus; assay: Open TG-GATES - Regimen: Daily Repeat; format: toxicity, organism-based, Sprague-Dawley; parameters: regimen Daily Repeat, gender Male, age 6 weeks; settings: in vivo, po, 0 mg/kg, […], tissue Plasma, route gavage, dose level Control, time 28 day
Recorded IP values for a group of compounds are listed next.
# output: bare number, implied unit mg/dL

C#C[C@]1(O)CC[C@H]2[C@@H]3CCC4=Cc5oncc5C[C@]4(C)[C@H]3CC[C@@]21C | 6.4
Clc1c(Cl)c(Cl)c(Cl)c(Cl)c1Cl | 7.5
C1CCC(C(CC2CCCCN2)C2CCCCC2)CC1 (centres undefined) | 5.6

Given the entry "CN(C)[C@@H]1C(O)=C(C(N)=O)C(=O)[C@@]2(O)C(O)=C3C(=O)c4c(O)cccc4[C@@](C)(O)[C@H]3C[C@@H]12" , report its measured IP.
7.2

====

species on record: Rattus norvegicus; assay: Open TG-GATES - Regimen: Single; assay type: toxicity, organism-based, Sprague-Dawley; set-up: regimen Single, gender Male, age 6 weeks; settings: in vivo, po, 0 mg/kg, 24 h, tissue Blood, route gavage, dose level Control
Recorded APTT values for a group of compounds are listed next.
Be sure to follow the number with its unit.

Here are 3 compounds together with their reported answers.
C1CCC(C(CC2CCCCN2)C2CCCCC2)CC1 (centres undefined) | 20.7 s
COc1cc([C@@H]2c3cc4c(cc3[C@@H](O[C@@H]3O[C@@H]5CO[C@@H](C)O[C@H]5[C@H](O)[C@H]3O)[C@H]3COC(=O)[C@H]23)OCO4)cc(OC)c1O [ETOPOSIDE] | 16.3 s
Cc1cccc(Nc2ccccc2C(=O)O)c1C | 18 s

Please find the next compound below.
Given the entry "CCOC(=O)[C@H](CCc1ccccc1)N[C@@H](C)C(=O)N1CCC[C@H]1C(=O)O" , report its measured APTT.
16.3 s

====

Recorded CRE values for a group of molecules are listed next.
species on record: Rattus norvegicus; experiment: Open TG-GATES - Regimen: Daily Repeat; format: toxicity, organism-based, Sprague-Dawley; set-up: regimen Daily Repeat, gender Male, age 6 weeks; settings: in vivo, po, 0 mg/kg, […], tissue Plasma, route gavage, dose level Control, time 14 day
# output: bare number, implied unit mg/dL

CN1C(C(=O)Nc2ccccn2)=C(O)c2sc(Cl)cc2S1(=O)=O | 0.4
CC(=O)Nc1nnc(S(N)(=O)=O)s1 [ACETAZOLAMIDE] | 0.2
Clc1c(Cl)c(Cl)c(Cl)c(Cl)c1Cl | 0.6
C#C[C@]1(O)CC[C@H]2[C@@H]3CCC4=Cc5oncc5C[C@]4(C)[C@H]3CC[C@@]21C | 0.2
CC(CN1c2ccccc2Sc2ccccc21)N(C)C (stereo not given) | 0.2
CCOC(=O)[C@H](CCc1ccccc1)N[C@@H](C)C(=O)N1CCC[C@H]1C(=O)O | 0.6

Given the entry "CN(C)[C@@H]1C(O)=C(C(N)=O)C(=O)[C@@]2(O)C(O)=C3C(=O)c4c(O)cccc4[C@@](C)(O)[C@H]3C[C@@H]12" , report its measured CRE.
0.5

Next record, please: "O=C(O)Cc1ccccc1Nc1c(Cl)cccc1Cl"
0.4

Next record, please: "Cc1cccc(Nc2ccccc2C(=O)O)c1C"
0.5

Next record, please: C1CCC(C(CC2CCCCN2)C2CCCCC2)CC1 (stereo not given)
0.2

====

species: Rattus norvegicus; assay: Open TG-GATES - Regimen: Daily Repeat; format: toxicity, organism-based, Sprague-Dawley; design: regimen Daily Repeat, gender Male, age 6 weeks; settings: in vivo, po, 0 mg/kg, […], tissue Kidney, route gavage, dose level Control, time 28 day
Recorded KIDNEY_R values for a group of molecules are listed next.
# output: bare number, implied unit g

C1CCC(C(CC2CCCCN2)C2CCCCC2)CC1 (stereo unspecified) [PERHEXILINE] | 1.2

Given the entry "CCOC(=O)[C@H](CCc1ccccc1)N[C@@H](C)C(=O)N1CCC[C@H]1C(=O)O" , report its measured KIDNEY_R.
1.4

Next record, please: Cc1cccc(Nc2ccccc2C(=O)O)c1C [MEFENAMIC ACID]
1.4

====

Recorded K values for a group of molecules are listed next.
species on record: Rattus norvegicus; experiment: Open TG-GATES - Regimen: Daily Repeat; format: toxicity, organism-based, Sprague-Dawley; design: regimen Daily Repeat, gender Male, age 6 weeks; conditions: in vivo, po, 0 mg/kg, […], tissue Plasma, route gavage, dose level Control, time 7 day
# output: bare number, implied unit meq/L

Here are 5 molecules together with their reported answers.
CN(C)[C@@H]1C(O)=C(C(N)=O)C(=O)[C@@]2(O)C(O)=C3C(=O)c4c(O)cccc4[C@@](C)(O)[C@H]3C[C@@H]12 [TETRACYCLINE] | 6.3
CC(CN1c2ccccc2Sc2ccccc21)N(C)C (centres undefined) [PROMETHAZINE] | 4.6
CN1C(C(=O)Nc2ccccn2)=C(O)c2sc(Cl)cc2S1(=O)=O [LORNOXICAM] | 4
CC(=O)Nc1nnc(S(N)(=O)=O)s1 [ACETAZOLAMIDE] | 4.7
Clc1c(Cl)c(Cl)c(Cl)c(Cl)c1Cl [PERCHLOROBENZENE] | 4.8

Please find the next molecule below.
Given the entry C#C[C@]1(O)CC[C@H]2[C@@H]3CCC4=Cc5oncc5C[C@]4(C)[C@H]3CC[C@@]21C [DANAZOL] , report its measured K.
4.4

====

organism: Rattus norvegicus; test: Open TG-GATES - Regimen: Daily Repeat; type: toxicity, organism-based, Sprague-Dawley; design: regimen Daily Repeat, gender Male, age 6 weeks; conditions: in vivo, po, 0 mg/kg, […], tissue Blood, route gavage, dose level Control, time 14 day
Recorded MCV values for a group of molecules are listed next.
# output: bare number, implied unit fL

Here are 6 molecules together with their reported answers.
CC(CN1c2ccccc2Sc2ccccc21)N(C)C (stereo not given) [PROMETHAZINE] | 60.8
Clc1c(Cl)c(Cl)c(Cl)c(Cl)c1Cl [PERCHLOROBENZENE] | 63.2
CCOC(=O)[C@H](CCc1ccccc1)N[C@@H](C)C(=O)N1CCC[C@H]1C(=O)O | 61.8
CN1C(C(=O)Nc2ccccn2)=C(O)c2sc(Cl)cc2S1(=O)=O [LORNOXICAM] | 59.6
C1CCC(C(CC2CCCCN2)C2CCCCC2)CC1 (stereo not given) [PERHEXILINE] | 60.8
O=C(O)Cc1ccccc1Nc1c(Cl)cccc1Cl [DICLOFENAC] | 59.9

Given the entry CC(=O)Nc1nnc(S(N)(=O)=O)s1 [ACETAZOLAMIDE] , report its measured MCV.
58.2

Next record, please: Cc1cccc(Nc2ccccc2C(=O)O)c1C [MEFENAMIC ACID]
60.8

Next record, please: C#C[C@]1(O)CC[C@H]2[C@@H]3CCC4=Cc5oncc5C[C@]4(C)[C@H]3CC[C@@]21C [DANAZOL]
60.6

Next record, please: CN(C)[C@@H]1C(O)=C(C(N)=O)C(=O)[C@@]2(O)C(O)=C3C(=O)c4c(O)cccc4[C@@](C)(O)[C@H]3C[C@@H]12 [TETRACYCLINE]
62.3

====

species on record: Rattus norvegicus; experiment: Open TG-GATES - Regimen: Single; assay type: toxicity, organism-based, Sprague-Dawley; set-up: regimen Single, gender Male, age 6 weeks; conditions: in vivo, po, 0 mg/kg, 24 h, tissue Blood, route gavage, dose level Control
Recorded MCHC values for a group of compounds are listed next.
Be sure to follow the number with its unit.

Here are 3 compounds together with their reported answers.
CC(CN1c2ccccc2Sc2ccccc21)N(C)C (configuration not stated) | 33.5%
CCOC(=O)[C@H](CCc1ccccc1)N[C@@H](C)C(=O)N1CCC[C@H]1C(=O)O | 33.1%
O=[N+]([O-])c1ccc2c(c1)Cc1ccccc1-2 | 32.5%

Given the entry "Clc1c(Cl)c(Cl)c(Cl)c(Cl)c1Cl" , report its measured MCHC.
34.8%

Next record, please: "CN(C)[C@@H]1C(O)=C(C(N)=O)C(=O)[C@@]2(O)C(O)=C3C(=O)c4c(O)cccc4[C@@](C)(O)[C@H]3C[C@@H]12"
33.2%

Next record, please: "C#C[C@]1(O)CC[C@H]2[C@@H]3CCC4=Cc5oncc5C[C@]4(C)[C@H]3CC[C@@]21C"
32.9%

Next record, please: "CN1C(C(=O)Nc2ccccn2)=C(O)c2sc(Cl)cc2S1(=O)=O"
33.3%
